# System tested: Adrenergic receptor alpha-1 (Rattus norvegicus, UniProt P15823+P23944+P43140)
# Test details: Displacement of [3H][…]prazosin from adrenergic alpha1 receptor in Wistar rat cortex incubated for 30 mins by microbeta liquid scintillation counting analysis
Quantity kind: Ki (nM)

COc1ccccc1OCCNCC(O)COc1cccc2c(=O)c3ccccc3oc12.Cl (racemic) = 875.5

I: COc1ccc(CCNCC(O)COc2cccc3c(=O)c4ccccc4oc23)cc1OC.Cl (racemic)
II: CC(C)(C)NCC(O)COc1cccc2c(=O)c3ccccc3oc12.Cl (racemic)
III: COc1ccccc1CCNCC(O)COc1cccc2c(=O)c3ccccc3oc12.Cl (racemic)
*Q* # rank by Ki, ascending (min first) Sort and list the labels as requested.
*A* I, II, III

====

# System tested: Adrenergic receptor alpha-1 (Rattus norvegicus, UniProt P15823+P23944+P43140)
# Test details: Displacement of [3H][…]prazosin from adrenergic alpha1 receptor in Wistar rat cortex incubated for 30 mins by microbeta liquid scintillation counting analysis
Quantity kind: IC50 (nM)

Cl.O=c1c2ccccc2oc2cc(OCC(O)CN3CCN(c4ccccn4)CC3)ccc12 (racemic) = 355.6

A: COc1ccccc1CCNCC(O)COc1cccc2c(=O)c3ccccc3oc12.Cl (racemic)
B: COc1ccccc1OCCNCC(O)COc1cccc2c(=O)c3ccccc3oc12.Cl (racemic)
C: COc1ccccc1CNCC(O)COc1cccc2c(=O)c3ccccc3oc12.Cl (racemic)
D: Cl.O=c1c2ccccc2oc2c(OCC(O)CN3CCN(c4ccccn4)CC3)cccc12 (racemic)
*Q* Sort ascending by IC50. A ranking is expressed here by listing the labels in the requested order.
*A* B, D, A, C
(B: 109.5 nM, D: 171 nM, A: 349.8 nM, C: 1870 nM)

====

# Test system: Rattus norvegicus
# Test details: Cardiotoxicity in Wistar rat assessed as effect on QT interval time at 5 mg/kg, iv measured after 1 min (reference value: 57.7 to 61 ms)
# Format: toxicity, organism-based
# Test parameters: in vivo
Quantity kind: Time (ms)
Output spec: scalar in ms, unitless text.

Field: example entries. Status: answers known.
COc1ccccc1CNCC(O)COc1cccc2c(=O)c3ccccc3oc12.Cl (racemic) = 65.5
Cl.O=c1c2ccccc2oc2c(OCC(O)CN3CCN(c4ccccn4)CC3)cccc12 (racemic) = 58.7
Cl.O=c1c2ccccc2oc2cc(OCC(O)CN3CCN(c4ccccn4)CC3)ccc12 (racemic) = 59
COc1ccccc1OCCNCC(O)COc1cccc2c(=O)c3ccccc3oc12.Cl (racemic) = 70
Cc1cccc2c(=O)c3ccc(OCC(O)CNC(C)(C)C)cc3oc12.Cl (racemic) = 59
COc1ccccc1CCNCC(O)COc1cccc2c(=O)c3ccccc3oc12.Cl (racemic) = 60.5

With those in mind, consider the next compound.
*Q* Name the recorded Time for COc1ccc(CCNCC(O)COc2cccc3c(=O)c4ccccc4oc23)cc1OC.Cl (racemic) .
*A* 61.3

====

# System tested: Adrenergic receptor alpha-1 (Rattus norvegicus) (UniProt P15823+P23944+P43140)
# Test details: Antagonist activity at adrenergic alpha1 receptor in isolated Wistar rat aorta assessed as inhibition of […] contraction incubated for 20 mins
Quantity kind: pKb

COc1ccccc1OCCNCC(O)COc1cccc2c(=O)c3ccccc3oc12.Cl (racemic) = 8.34
Cl.O=c1c2ccccc2oc2c(OCC(O)CN3CCN(c4ccccn4)CC3)cccc12 (racemic) = 7.52
Cl.O=c1c2ccccc2oc2cc(OCC(O)CN3CCN(c4ccccn4)CC3)ccc12 (racemic) = 8.2
COc1ccccc1CCNCC(O)COc1cccc2c(=O)c3ccccc3oc12.Cl (racemic) = 8.28

====

A collection of compounds and their measured Activity
# System: Rattus norvegicus
# Test details: Hypotensive activity in normotensive Wistar rat assessed as diastolic blood pressure at 1 mg/kg, iv measured after 5 mins (reference value: 88.4 to 122.7 mmHg)
# Format: functional
I only need the number, in mmHg, no unit after it.

Consider the following illustrative entries.
CC(C)(C)NCC(O)COc1cccc2c(=O)c3ccccc3oc12.Cl (racemic) = 111
Cl.O=c1c2ccccc2oc2cc(OCC(O)CN3CCN(c4ccccn4)CC3)ccc12 (racemic) = 107.5
COc1ccccc1CCNCC(O)COc1cccc2c(=O)c3ccccc3oc12.Cl (racemic) = 114.8
Cl.O=c1c2ccccc2oc2c(OCC(O)CN3CCN(c4ccccn4)CC3)cccc12 (racemic) = 111.7

API: the following record is the query input.
*Q* Param item = COc1ccccc1OCCNCC(O)COc1cccc2c(=O)c3ccccc3oc12.Cl (racemic) ; retrieve measured Activity.
*A* 85.4

====

# Tested on: Rattus norvegicus
# Test details: Cardiotoxicity in Wistar rat assessed as effect on QTC interval time at 5 mg/kg, iv measured after 15 mins (reference value: 136.7 to 146.2 ms)
# Assay type: toxicity, organism-based
# Test parameters: in vivo, 0.25 h
Measured Time, listed per entry for reference.
Write it as a number; the unit ms goes unstated.

COc1ccccc1CNCC(O)COc1cccc2c(=O)c3ccccc3oc12.Cl (racemic) = 139.3
COc1ccccc1OCCNCC(O)COc1cccc2c(=O)c3ccccc3oc12.Cl (racemic) = 131.1
COc1ccccc1CCNCC(O)COc1cccc2c(=O)c3ccccc3oc12.Cl (racemic) = 148.5

Now turn to the next molecule.
*Q* Using the record for Cl.O=c1c2ccccc2oc2cc(OCC(O)CN3CCN(c4ccccn4)CC3)ccc12 (racemic) , report its Time.
*A* 133.9

====

# Test system: Rattus norvegicus
# Test details: Hypotensive activity in normotensive Wistar rat assessed as systolic blood pressure at 5 mg/kg, iv measured after 60 mins (reference value: 119.2 to 148.6 mmHg)
# Format: functional
Quantity kind: Activity (mmHg)
Report the value in mmHg with no unit label.

Worked cases, Activity given:
COc1ccccc1OCCNCC(O)COc1cccc2c(=O)c3ccccc3oc12.Cl (racemic) = 106.2
COc1ccccc1CCNCC(O)COc1cccc2c(=O)c3ccccc3oc12.Cl (racemic) = 117
Cc1cccc2c(=O)c3ccc(OCC(O)CNC(C)(C)C)cc3oc12.Cl (racemic) = 144

*Q* Given the entry COc1ccc(CCNCC(O)COc2cccc3c(=O)c4ccccc4oc23)cc1OC.Cl (racemic) , report its measured Activity.
*A* 129.8

*Q* // query Activity value for entry Cl.O=c1c2ccccc2oc2c(OCC(O)CN3CCN(c4ccccn4)CC3)cccc12 (racemic)
*A* 126.4

*Q* May I ask what Activity has been recorded for COc1ccccc1CNCC(O)COc1cccc2c(=O)c3ccccc3oc12.Cl (racemic) ?
*A* 125.3

*Q* Bench note: what Activity did Cl.O=c1c2ccccc2oc2cc(OCC(O)CN3CCN(c4ccccn4)CC3)ccc12 (racemic) show?
*A* 102.5

====

# Test system: Rattus norvegicus
# Test details: Hypotensive activity in normotensive Wistar rat assessed as systolic blood pressure at 1 mg/kg, iv measured after 60 mins (reference value: 122.4 to 156.5 mmHg)
# Type: functional
Quantity kind: Activity (mmHg)
Numeric only. Scale: mmHg

Some entries whose results are on file:
Cl.O=c1c2ccccc2oc2cc(OCC(O)CN3CCN(c4ccccn4)CC3)ccc12 (racemic) = 122.7
CC(C)(C)NCC(O)COc1cccc2c(=O)c3ccccc3oc12.Cl (racemic) = 123
COc1ccccc1CCNCC(O)COc1cccc2c(=O)c3ccccc3oc12.Cl (racemic) = 126.3

*Q* Return reported Activity; argument: COc1ccccc1OCCNCC(O)COc1cccc2c(=O)c3ccccc3oc12.Cl (racemic)
*A* 106.8

*Q* Please give the measured Activity for this compound: Cl.O=c1c2ccccc2oc2c(OCC(O)CN3CCN(c4ccccn4)CC3)cccc12 (racemic)
*A* 138.7

====

# System: Rattus norvegicus
# Test details: Cardiotoxicity in Wistar rat assessed as effect on QTC interval time at 5 mg/kg, iv measured after 5 mins (reference value: 136.7 to 146.2 ms)
# Type: toxicity, organism-based
# Test parameters: in vivo
Quantity kind: Time (ms)
Kindly provide the numeric value in ms only, without the unit symbol.

Cc1cccc2c(=O)c3ccc(OCC(O)CNC(C)(C)C)cc3oc12.Cl (racemic) = 135.2
Cl.O=c1c2ccccc2oc2cc(OCC(O)CN3CCN(c4ccccn4)CC3)ccc12 (racemic) = 133.3
COc1ccccc1CCNCC(O)COc1cccc2c(=O)c3ccccc3oc12.Cl (racemic) = 148.2
COc1ccc(CCNCC(O)COc2cccc3c(=O)c4ccccc4oc23)cc1OC.Cl (racemic) = 138.4
COc1ccccc1OCCNCC(O)COc1cccc2c(=O)c3ccccc3oc12.Cl (racemic) = 148.3
COc1ccccc1CNCC(O)COc1cccc2c(=O)c3ccccc3oc12.Cl (racemic) = 129.8

*Q* For the molecule shown here, Cl.O=c1c2ccccc2oc2c(OCC(O)CN3CCN(c4ccccn4)CC3)cccc12 (racemic) , give the reported Time.
*A* 144.8

====

# Tested on: Rattus norvegicus
# Test details: Hypotensive activity in normotensive Wistar rat assessed as diastolic blood pressure at 5 mg/kg, iv measured after 30 mins (reference value: 86.5 to 119.4 mmHg)
# Format: functional
Quantity kind: Activity (mmHg)
Record the value in mmHg, omitting the unit from your answer.

Study these solved cases before continuing.
Cl.O=c1c2ccccc2oc2c(OCC(O)CN3CCN(c4ccccn4)CC3)cccc12 (racemic) = 99.8
COc1ccccc1CCNCC(O)COc1cccc2c(=O)c3ccccc3oc12.Cl (racemic) = 97.2

*Q* Which Activity is listed for COc1ccc(CCNCC(O)COc2cccc3c(=O)c4ccccc4oc23)cc1OC.Cl (racemic) ?
*A* 96.2

*Q* Find the recorded Activity belonging to COc1ccccc1OCCNCC(O)COc1cccc2c(=O)c3ccccc3oc12.Cl (racemic) and report it.
*A* 77.2

*Q* Return reported Activity; argument: COc1ccccc1CNCC(O)COc1cccc2c(=O)c3ccccc3oc12.Cl (racemic)
*A* 96

*Q* What Activity value was documented for this molecule, Cc1cccc2c(=O)c3ccc(OCC(O)CNC(C)(C)C)cc3oc12.Cl (racemic) ?
*A* 123.8

*Q* // Activity lookup, key: Cl.O=c1c2ccccc2oc2cc(OCC(O)CN3CCN(c4ccccn4)CC3)ccc12 (racemic)
*A* 79.5
